Test system: HL-60(TB) leukemia
ASSAY: NCI-60 one-dose screen, 48 h (100 = growth as untreated, 0 = no growth, -100 = all killed)
PARTICULARS: 10 µM unless noted
This is part of a sample that, as a whole, favours compounds with a hit. Of some 83,000 tested, about 20% had one in any assay. Active and inactive are the calls of the source. How the source made its calls: active means growth percent below 10; inactive means the rest.
MEASUREMENT NAME: growth

# input Query: growth; subject: `Cc1cc(=O)oc2cc(OCCCOc3ccc(/C=C/C(=O)Nc4ccc(Cl)cc4)cc3)ccc12`
# output 86.1% (inactive)

# input Query: growth; subject: `O=C(NNc1nc2cc(F)ccc2n2c(CO)ccc12)c1cnccn1`
# output -27.4% (active)

# input Query: growth; subject: COc1c(N2CC3CCCNC3C2)c(F)cc2c(=O)c(C(=O)N/N=C/c3ccc(Br)cc3)cn(C3CC3)c12 (configuration not stated)
# output 84% (inactive)

# input Query: growth; subject: `COc1ccc(-c2nc3ccc(-c4nnc(SCC(=O)Nc5ccc(C(=O)/C=C/c6ccc(Cl)cc6)cc5)o4)cc3[nH]2)cc1OC`
# output 88.7% (inactive)

***
# input Query: growth; subject: `COc1cc(Cn2cc3c(c2)-c2onc(CN4CCCC4)c2CC3)cc(OC)c1OC`
# output 99% (inactive)

# input Query: growth; subject: CCCn1cnc2c(c1=N)C(c1ccc(F)cc1)c1sc3c(CC)cccc3c1O2 (configuration not stated)
# output -36.4% (active)

# input Query: growth; subject: CC[C@]12CC(C(=O)OC)=C3Nc4ccccc4[C@@]34CCN(C14)[C@@H]1c3cc4c(cc3O[C@@H]1[C@H]2O)NC1=C(C(=O)OC)C[C@@]2(CC)C3N(CC[C@@]143)C[C@H]1O[C@H]12 (some centres not stated)
# output -1.14% (active)

# input Query: growth; subject: `COc1ccccc1C(=O)CSc1nc(Nc2ccc(S(N)(=O)=O)cc2)c2ccccc2n1`
# output 94.5% (inactive)

# input Query: growth; subject: `CNC(=O)c1cc(N2CCc3cc(NC(=O)Nc4ccc(N5CCN(C)CC5)c(C(F)(F)F)c4)ccc32)ccn1`
# output 79% (inactive)

# input Query: growth; subject: `O=C1[C@H]2Cc3c([nH]c4ccccc34)[C@H](c3ccc(Cl)cc3)N2C(=O)CN1C1CCN(CC2CCCCC2)CC1`
# output 47.2% (inactive)

# input Query: growth; subject: `CN(C)CCNc1ccc2ncc(C#Cc3cncc(C(=O)Nc4ccc(CN5CCN(C)CC5)c(C(F)(F)F)c4)c3)n2n1`
# output -32.1% (active)

# input Query: growth; subject: CCCC(=O)NC(c1ccc2c(c1)OC(F)(F)O2)c1cc(C)c2cccnc2c1O (configuration not stated)
# output -4.8% (active)

# input Query: growth; subject: `Cc1ccc(NC(=O)c2cc(/C=C/C(=O)NO)cc(C(F)(F)F)c2)cc1Nc1nccc(-c2cccnc2)n1`
# output 0.414% (active)

# input Query: growth; subject: COc1ccc(C2C(C#N)=C(/N=C/c3ccc(Cl)cc3)Oc3c2sc2c(C)cccc32)cc1 (configuration not stated)
# output 4.04% (active)

# input Query: growth; subject: `NS(=O)(=O)c1ccc(Nc2nc(N/N=C/c3c[nH]c4ccccc34)nc(Nc3ccccc3)n2)cc1`
# output 34.4% (inactive)

# input Query: growth; subject: `CN1CCN(Cc2ccc(NC(=O)c3cncc(C#Cc4cnc5ccc(NC6CCOCC6)nn45)c3)cc2C(F)(F)F)CC1`
# output -45.2% (active)

# input Query: growth; subject: `Fc1ccc(-c2cn3c(-c4c[nH]c5ccc(Br)cc45)csc3n2)cc1`
# output 104% (inactive)

----------
Test system: HL-60(TB) leukemia
ASSAY: NCI-60 one-dose screen, 48 h (100 = growth as untreated, 0 = no growth, -100 = all killed)
PARTICULARS: 10 µM unless noted
Compounds without any hit were thinned out: in the full panel of roughly 83,000, 20% have a hit.
MEASUREMENT NAME: growth (%)
# unit: % | format: bare number

# input Query: growth; subject: `C#C[C@]1(O)CC[C@H]2[C@@H]3CC=C4c5sc(Nc6ccc(C)cn6)nc5CC[C@]4(C)[C@H]3CC[C@@]21C`
# output -43.3

# input Query: growth; subject: `COc1cc(/C=C/C(=O)c2ccc(Cl)cc2)ccc1Oc1nc(NCCO)nc(N2CCOCC2)n1`
# output 93.7

***
# input Query: growth; subject: `O=C(NCCNc1cc(-c2cn(-c3ccccc3)nc2-c2cccc(O)c2)ccn1)Nc1cc(C(F)(F)F)cc(C(F)(F)F)c1`
# output 97

# input Query: growth; subject: `Nc1nc(Nc2ccccc2SSc2ccccc2Nc2nc(N)nc(-c3ccc4ccccc4c3)n2)nc(-c2ccc3ccccc3c2)n1`
# output 112

# input Query: growth; subject: `CN(C)CCCOc1ccc(C(=C(c2ccccc2)C2CCCC2)c2ccc(OCCCN(C)C)cc2)cc1`
# output -57.1

----------
Test system: SF-539 CNS
ASSAY: NCI-60 one-dose screen, 48 h
PARTICULARS: 10 µM
Experimental: Cells are grown in 96 well plates and exposed to the test compound for 48 hours. Compounds are tested at a single concentration, which is 10^-5 M for most compounds. The reported endpoint is percent growth (GI% or GIPRCNT), where numbers from 0 - 100% represent growth inhibition, and numbers from -100% - 0 represent cell death. For example, a value of 40 represents 60% growth inhibition. A value of 0 means no net growth occurred over the course of the experiment. […]
Compounds without any hit were thinned out: in the full panel of roughly 83,000, 20% have a hit. Activity calls are given as the source filed them. The calls were made as follows: active = growth percent below 10; inactive = the rest.
Respond only with the outcome that fits, drawn from active, inactive

# input Lab log entry: `CC(=O)O[C@@H]1C[C@H]2O[C@@H]3C=C(C)CC[C@]3(C)[C@]1(C)[C@]21CO1` — outcome as called in the assay?
# output active

# input Lab log entry: `N#Cc1nc(-c2ccccc2)oc1N1CCC(S(=O)(=O)F)CC1` — outcome as called in the assay?
# output inactive

***
# input Lab log entry: `CC1=C2C(=C[C@@](C)(C=O)[C@@H]2O)C(=O)[C@](C)(O)C12CC2` — outcome as called in the assay?
# output active

# input Lab log entry: `CC1=C[C@H]2O[C@@H]3C[C@H]4OC(=O)/C=C\C=C\[C@H]([C@@H](C)O)OCC[C@@H](C)[C@H](O)C(=O)OC[C@@]2(CC1)[C@]4(C)[C@]31CO1` — outcome as called in the assay?
# output active

----------
System: HL-60(TB) leukemia
ASSAY: NCI-60 one-dose screen, 48 h (100 = growth as untreated, 0 = no growth, -100 = all killed)
PARTICULARS: 10 µM unless noted
This is part of a sample that, as a whole, favours compounds with a hit. Of some 83,000 tested, about 20% had one in any assay. Calls of active or inactive are those of the source. Rule for the calls: active = growth percent below 10; inactive = the rest.
Attribute: growth

# input Fill in the recorded growth for this compound, with HL-60(TB) leukemia as test system: `Brc1cccc(-c2cc(-c3cnc4c(c3)OCCO4)n[nH]2)c1`
# output 21.2% (inactive)

***
# input Fill in the recorded growth for this compound, with HL-60(TB) leukemia as test system: `Cc1ccc(-c2cc3nc(C(Cl)Cl)nc(-c4ccc(S(=O)(=O)N(C)C)cc4)n3n2)cc1`
# output 74.9% (inactive)

# input Fill in the recorded growth for this compound, with HL-60(TB) leukemia as test system: `C=C(C=O)[C@@H]1CC[C@]2(CO)CC[C@]3(C)[C@H](CC[C@@H]4[C@@]5(C)CCCNC(C)(C)[C@@H]5CC[C@]43C)[C@@H]12`
# output -10.2% (active)

# input Fill in the recorded growth for this compound, with HL-60(TB) leukemia as test system: `CN1CCC(n2cc(Nc3ncc4c(=O)n(-c5c(Cl)cccc5Cl)cc(Br)c4n3)cn2)CC1`
# output -13.8% (active)

----------
Tested on: MDA-MB-231 breast
ASSAY: NCI-60 one-dose screen, 48 h (100 = growth as untreated, 0 = no growth, -100 = all killed)
PARTICULARS: 10 µM
Compounds without any hit were thinned out: in the full panel of roughly 83,000, 20% have a hit.
MEASUREMENT NAME: growth (%)
# unit: % | format: bare number

# input Query: growth; subject: `CC1=C2C(=C[C@@](C)(COC(=O)c3ccc(S(=O)(=O)F)cc3)[C@@H]2OC(=O)c2ccc(S(=O)(=O)F)cc2)C(=O)[C@](C)(O)C12CC2`
# output 1.44

# input Query: growth; subject: `CN(CCF)/N=N/c1nc[nH]c1C(N)=O`
# output 39.5

# evaluate next
# input Query: growth; subject: `C[C@@H]1CCC/C=C/[C@H]2C[C@@H](O)C[C@@H]2[C@@H](O)/C=C/C(=O)O1`
# output -62.2
